Reference source for all entries: patent US11903387B2

Reported Test 2 Measured values follow for various compounds
Tested on: Pseudoperonospora cubensis
Assay: Test 2: control effect against cucumber downy mildew
Format: in vivo
Conditions: component (b) alone, 2 ppm
Would you mind answering with just the numeric figure?

Lookup: Look up Test 2 Measured for this compound: C#CCOc1ccc(CCNC(=O)C(OCC#C)c2ccc(Cl)cc2)cc1OC (stereo not shown)
Found: 95

Lookup: Returns the measured Test 2 Measured for the input compound. Input: COCC(=O)N(c1c(C)cccc1C)[C@H](C)C(=O)OC [Metalaxyl-M]
Found: 0

Lookup: Looking for the measured Test 2 Measured of O=C(NCc1ncc(C(F)(F)F)cc1Cl)c1c(Cl)cccc1Cl [Fluopicolide] , can you help?
Found: 98.3

Lookup: Could you tell me which Test 2 Measured is on file for CCCCCCCCc1c(CC)nc2ncnn2c1N ?
Found: 95

Lookup: Reported Test 2 Measured, compound Cc1c(Br)c2ccc(F)cc2n1S(=O)(=O)c1ncn(S(=O)(=O)N(C)C)n1 : ____
Found: 98.8

Lookup: Given the entry COC(=O)CC(NC(=O)[C@@H](NC(=O)OC(C)C)C(C)C)c1ccc(Cl)cc1 (stereo partly shown) [Valifenalate] , report its measured Test 2 Measured.
Found: 51.8

Lookup: So what's the measured Test 2 Measured for this one? Cc1ccc(C(C)NC(=O)[C@@H](NC(=O)OC(C)C)C(C)C)cc1 (stereo partly shown)
Found: 0

---

Tested on: Phytophthora infestans
Experiment: whole plant or invertebrate
Format: in vivo
Conditions: component (b) alone, 2 ppm
Property Measured: Test 1 Measured preventive value
The reply should be a number, written without any unit.

Some solved entries appear below for comparison.
{"columns": ["Compound", "Assay Result"],
 "data": [
  ["COCC(=O)N(c1c(C)cccc1C)[C@H](C)C(=O)OC [Metalaxyl-M]", 89.3],
  ["COC(=O)CC(NC(=O)[C@@H](NC(=O)OC(C)C)C(C)C)c1ccc(Cl)cc1 (stereo partly shown) [Valifenalate]", 51.7],
  ["CCNc1nc(CC)c(C(=O)NC(C#N)c2cccs2)s1 (stereo not shown)", 95]
]}

Lookup: Record request: Test 1 Measured preventive value value, item C#CCOc1ccc(CCNC(=O)C(OCC#C)c2ccc(Cl)cc2)cc1OC (stereo not shown)
Found: 100.0

---

Test system: Pseudoperonospora cubensis
Test: Test 2: control effect against cucumber downy mildew
Assay type: in vivo
Conditions: component (b) alone, 0.4 ppm
Property Measured: Test 2 Measured preventive value
# output: bare number, no unit

{"columns": ["Compound", "Test 2 Measured preventive value"],
 "data": [
  ["COCC(=O)N(c1c(C)cccc1C)[C@H](C)C(=O)OC [Metalaxyl-M]", 0]
]}

Below: the item to evaluate.
Lookup: Look up Test 2 Measured preventive value: COC(=O)CC(NC(=O)[C@@H](NC(=O)OC(C)C)C(C)C)c1ccc(Cl)cc1 (some centres unmarked) [Valifenalate]
Found: 0

---

Tested on: Pseudoperonospora cubensis
Test: Test 2: control effect against cucumber downy mildew
Assay type: in vivo
Settings: Pseudoperonospora cubensis, component (b) alone 20 ppm; read-out: Test 2 Measured
Property Measured: pest or weed control at 20 ppm
Give the value; after it, write the unit.

{"columns": ["Molecule", "Assay Result"],
 "data": [
  ["COC(=O)NC(=S)Nc1ccccc1NC(=S)NC(=O)OC [Thiophanate-methyl]", "0%"],
  ["Cc1cccc2sc3nncn3c12 [Tricyclazole]", "0%"],
  ["N#Cc1c[nH]cc1-c1cccc2c1OC(F)(F)O2 [Fludioxonil]", "87.5%"]
]}

Lookup: Form field - read-out: pest or weed control at 20 ppm; system: Pseudoperonospora cubensis; submitted item: Cc1cc(C2CC2)nc(Nc2ccccc2)n1 [Cyprodinil]
Found: 0%

Lookup: Lab note: need pest or weed control at 20 ppm with Pseudoperonospora cubensis for entry CC(C)(C)C(O)(CCc1ccc(Cl)cc1)Cn1cncn1 (stereo not drawn) [Tebuconazole] , please look it up.
Found: 0%

Lookup: Could you share what pest or weed control at 20 ppm was measured for CC(C)NC(=O)N1CC(=O)N(c2cc(Cl)cc(Cl)c2)C1=O [Iprodione] , tested on Pseudoperonospora cubensis?
Found: 0%
